Species: Rattus norvegicus
Experiment: DrugMatrix - Regimen: Daily Repeat
Assay type: toxicity, organism-based, Sprague-Dawley
Parameters: regimen Daily Repeat, gender Male, age 6-8 weeks
Settings: in vivo, po, 0 mg/kg, 72 h, tissue Blood, route oral GAVAGE, dose level Control, time 3 day, vehicle 100 % SALINE
QUANTITY: ABSOLUTE LYMPHOCYTE (CELLS/uL)
Numbers only, in CELLS/uL.

Past entries and their recorded results:
O=[As][O-].[Na+] [SODIUM ARSENITE] | 11922.83
CC(CN1c2ccccc2Sc2ccccc21)N(C)C (stereo not given) | 17283.5
Cc1ccnc2c1NC(=O)c1cccnc1N2C1CC1 | 12359.33
CCO | 11922.83

Please supply the value of reported ABSOLUTE LYMPHOCYTE for the item CCN(CC)N=O
8960.83
